Sourced from patent US12636299B2

Test system: caspase-3,7 activity
Assay: Caspase-3,7 activity in salsolinol-induced model of PD on SH-SY5Y (Ac-DEVD-AMC)
Assay type: cell-based, human
Details: 10 μM; percentages of control (800 μM SAL = 100); 24 hour co-treatment
Recorded Caspase-3,7 activity (% of 800 μM SAL control) values for a group of molecules are listed next.
Hey, just the number and the unit after it is fine.

// below: answered molecules
{"molecule": "C=C(C(=O)OCc1cccnc1)C1CCC2(COC(C)=O)CCC3(C)C(CCC4C5(C)CCC(OC(C)=O)C(C)(C)C5CCC43C)C12 (stereo not shown)", "tgt": "caspase-3,7 activity", "result": "46.0%"}
{"molecule": "C=C(C(=O)OCc1ccco1)C1CCC2(COC(C)=O)CCC3(C)C(CCC4C5(C)CCC(OC(C)=O)C(C)(C)C5CCC43C)C12 (stereo not shown)", "tgt": "caspase-3,7 activity", "result": "76.5%"}
{"molecule": "C=C(C(=O)OCc1cccs1)C1CCC2(COC(C)=O)CCC3(C)C(CCC4C5(C)CCC(OC(C)=O)C(C)(C)C5CCC43C)C12 (stereo not shown)", "tgt": "caspase-3,7 activity", "result": "88.3%"}

Attention now shifts to the item below.
## Task Write down the reported Caspase-3,7 activity (% of 800 μM SAL control) of C=C(C(=O)OCc1ccncc1)C1CCC2(COC(C)=O)CCC3(C)C(CCC4C5(C)CCC(OC(C)=O)C(C)(C)C5CCC43C)C12 (stereo not shown) , test system: caspase-3,7 activity.
## Result 55.6%

---

Test system: superoxide radical formation
Test: Oxidative stress (superoxide radical formation, DHE) in 3NPA-induced model on SH-SY5Y
Format: cell-based, human
Settings: 1 μM; 20 mM 3NPA = 100%; 24 hours
Recorded Superoxide radical formation (oxidative stress) % values for a group of compounds are listed next.
Dear colleague, please return just the value in %, with no unit written.

// below: answered compounds
{"compound": "C=C(C(=O)OCc1ccncc1)C1CCC2(COC(C)=O)CCC3(C)C(CCC4C5(C)CCC(OC(C)=O)C(C)(C)C5CCC43C)C12 (stereo not shown) [Compound 3]", "number": 79.0}
{"compound": "C=C(C(=O)OCc1ccco1)C1CCC2(COC(C)=O)CCC3(C)C(CCC4C5(C)CCC(OC(C)=O)C(C)(C)C5CCC43C)C12 (stereo not shown) [Compound 5]", "number": 87.3}
{"compound": "C=C(C(=O)OCc1cccnc1)C1CCC2(COC(C)=O)CCC3(C)C(CCC4C5(C)CCC(OC(C)=O)C(C)(C)C5CCC43C)C12 (stereo not shown) [Compound 4]", "number": 78.5}

Attention now shifts to the item below.
## Task Please give the measured Superoxide radical formation (oxidative stress) % for this compound: C=C(C(=O)OCc1cccs1)C1CCC2(COC(C)=O)CCC3(C)C(CCC4C5(C)CCC(OC(C)=O)C(C)(C)C5CCC43C)C12 (stereo not shown) [Compound 6]
## Result 89.9

---

Tested on: caspase-3,7 activity
Experiment: Caspase-3,7 activity in salsolinol-induced model of PD on SH-SY5Y (Ac-DEVD-AMC)
Type: cell-based, human
Details: 1 μM; percentages of control (800 μM SAL = 100); 24 hour co-treatment
measured-endpoint: Caspase-3,7 activity (% of 800 μM SAL control) (%)
Dear colleague, please return just the value in %, with no unit written.

## Task Write down the reported Caspase-3,7 activity (% of 800 μM SAL control) of C=C(C(=O)OCc1cccnc1)C1CCC2(COC(C)=O)CCC3(C)C(CCC4C5(C)CCC(OC(C)=O)C(C)(C)C5CCC43C)C12 (stereo not shown) , test system: caspase-3,7 activity.
## Result 67.2

## Task Write down the reported Caspase-3,7 activity (% of 800 μM SAL control) of C=C(C(=O)OCc1cccs1)C1CCC2(COC(C)=O)CCC3(C)C(CCC4C5(C)CCC(OC(C)=O)C(C)(C)C5CCC43C)C12 (stereo not shown) , test system: caspase-3,7 activity.
## Result 93.2

## Task Write down the reported Caspase-3,7 activity (% of 800 μM SAL control) of C=C(C(=O)OCc1ccncc1)C1CCC2(COC(C)=O)CCC3(C)C(CCC4C5(C)CCC(OC(C)=O)C(C)(C)C5CCC43C)C12 (stereo not shown) , test system: caspase-3,7 activity.
## Result 73.7

## Task Write down the reported Caspase-3,7 activity (% of 800 μM SAL control) of C=C(C(=O)OCc1ccco1)C1CCC2(COC(C)=O)CCC3(C)C(CCC4C5(C)CCC(OC(C)=O)C(C)(C)C5CCC43C)C12 (stereo not shown) , test system: caspase-3,7 activity.
## Result 86.8

---

Test system: SH-SY5Y human neuroblastoma cell line
Assay: Cytotoxicity, Calcein AM viability assay on neuron-like SH-SY5Y cells
Assay type: cell-based
Details: 0.1 μM, 24 h
Procedure: The SH-SY5Y human neuroblastoma cell line obtained from ECACC (The European Collection of Authenticated Cell Cultures) was cultivated in Dulbecco's modified Eagle's Medium and Ham's F12 Nutrient Mixture (DMEM:F-12, 1:1), supplemented with 10% fetal bovine serum (FBS) and 1% penicillin and streptomycin at 37° C. in a humidified atmosphere 5% CO2, 95% humidity in passage limit up to ECACC+20. […] The cell viability was measured by Calcein AM (1 mg/ml ThermoFisher) viability assay. […]
measured-endpoint: viability, percentage of DMSO control

{"compound": "C=C(C(=O)OCc1ccco1)C1CCC2(COC(C)=O)CCC3(C)C(CCC4C5(C)CCC(OC(C)=O)C(C)(C)C5CCC43C)C12 (stereo not shown)", "tgt": "SH-SY5Y human neuroblastoma cell line", "result": "91.9%"}
{"compound": "C=C(C(=O)OCc1cccs1)C1CCC2(COC(C)=O)CCC3(C)C(CCC4C5(C)CCC(OC(C)=O)C(C)(C)C5CCC43C)C12 (stereo not shown)", "tgt": "SH-SY5Y human neuroblastoma cell line", "result": "92.1%"}
{"compound": "C=C(C(=O)OCc1cccnc1)C1CCC2(COC(C)=O)CCC3(C)C(CCC4C5(C)CCC(OC(C)=O)C(C)(C)C5CCC43C)C12 (stereo not shown)", "tgt": "SH-SY5Y human neuroblastoma cell line", "result": "99.9%"}

Attention now shifts to the item below.
## Task Please give the measured viability, percentage of DMSO control for this compound: C=C(C(=O)OCc1ccncc1)C1CCC2(COC(C)=O)CCC3(C)C(CCC4C5(C)CCC(OC(C)=O)C(C)(C)C5CCC43C)C12 (stereo not shown)
## Result 115.8%

---

Tested on: SH-SY5Y human neuroblastoma cell line
Test: Cytotoxicity, Calcein AM viability assay on neuron-like SH-SY5Y cells
Format: cell-based
Conditions: 1 μM, 24 h
measured-endpoint: viability, percentage of DMSO control (%)
Dear colleague, please return just the value in %, with no unit written.

{"molecule": "C=C(C(=O)OCc1ccncc1)C1CCC2(COC(C)=O)CCC3(C)C(CCC4C5(C)CCC(OC(C)=O)C(C)(C)C5CCC43C)C12 (stereo not shown)", "tgt": "SH-SY5Y human neuroblastoma cell line", "result-units": "%", "number": 145.0}
{"molecule": "C=C(C(=O)OCc1cccnc1)C1CCC2(COC(C)=O)CCC3(C)C(CCC4C5(C)CCC(OC(C)=O)C(C)(C)C5CCC43C)C12 (stereo not shown)", "tgt": "SH-SY5Y human neuroblastoma cell line", "result-units": "%", "number": 146.1}
{"molecule": "C=C(C(=O)OCc1ccco1)C1CCC2(COC(C)=O)CCC3(C)C(CCC4C5(C)CCC(OC(C)=O)C(C)(C)C5CCC43C)C12 (stereo not shown)", "tgt": "SH-SY5Y human neuroblastoma cell line", "result-units": "%", "number": 106.4}

Attention now shifts to the item below.
## Task Please give the measured viability, percentage of DMSO control for this molecule: C=C(C(=O)OCc1cccs1)C1CCC2(COC(C)=O)CCC3(C)C(CCC4C5(C)CCC(OC(C)=O)C(C)(C)C5CCC43C)C12 (stereo not shown)
## Result 96.2

---

Recorded Superoxide radical formation (oxidative stress) % values for a group of molecules are listed next.
Test system: superoxide radical formation
Assay: Oxidative stress (superoxide radical formation, DHE) in 3NPA-induced model on SH-SY5Y
Assay type: cell-based, human
Settings: 0.1 μM; 20 mM 3NPA = 100%; 24 hours
Dear colleague, please return just the value in %, with no unit written.

{"molecule": "C=C(C(=O)OCc1ccco1)C1CCC2(COC(C)=O)CCC3(C)C(CCC4C5(C)CCC(OC(C)=O)C(C)(C)C5CCC43C)C12 (stereo not shown)", "number": 94.1}
{"molecule": "C=C(C(=O)OCc1ccncc1)C1CCC2(COC(C)=O)CCC3(C)C(CCC4C5(C)CCC(OC(C)=O)C(C)(C)C5CCC43C)C12 (stereo not shown)", "number": 88.4}

## Task Write down the reported Superoxide radical formation (oxidative stress) % of C=C(C(=O)OCc1cccnc1)C1CCC2(COC(C)=O)CCC3(C)C(CCC4C5(C)CCC(OC(C)=O)C(C)(C)C5CCC43C)C12 (stereo not shown) , test system: superoxide radical formation.
## Result 84.7

## Task Write down the reported Superoxide radical formation (oxidative stress) % of C=C(C(=O)OCc1cccs1)C1CCC2(COC(C)=O)CCC3(C)C(CCC4C5(C)CCC(OC(C)=O)C(C)(C)C5CCC43C)C12 (stereo not shown) , test system: superoxide radical formation.
## Result 92.2
